target: UniProtKB P04150; test: reporter gene test in HeLa cells, transactivation, MMTV promoter-luciferase; details: HeLa cells, luciferase
quantity: Transactivating (TA)(MMTV-Promoter) Efficacy (%)
A number alone suffices; assume %.

* C[C@@H]1C[C@H]2[C@@H]3CCC4=CC(=O)C=C[C@]4(C)[C@@]3(F)[C@@H](O)C[C@]2(C)[C@@]1(O)C(=O)CO [Dexamethasone, reference compound] | 100
* Cc1noc(=O)c2ccc(NC(=O)C(O)(CC3(c4cccc(F)c4O)CCC3)C(F)(F)F)cc12 (single isomer, unassigned) [Example 33] | 76
* CCc1noc(=O)c2ccc(NC(=O)C(O)(CC3(c4cccc5c4OCC5)CCC3)C(F)(F)F)cc12 (single isomer, unassigned) [Example 17] | 50
* Cc1noc(=O)c2ccc(NC(=O)C(O)(CC(C)(C)c3cccc4ccoc34)C(F)(F)F)cc12 (single isomer, unassigned) [Example 23] | 76
* Cc1noc(=O)c2ccc(NC(=O)C(O)(CC(C)(C)c3cccc4c3OCO4)C(F)(F)F)cc12 (single isomer, unassigned; (+)) [Example 2] | 71

Lab book: Transactivating (TA)(MMTV-Promoter) Efficacy of CCc1noc(=O)c2ccc(NC(=O)C(O)(CC(C)(C)c3cccc4ccoc34)C(F)(F)F)cc12 (single isomer, unassigned; (+)) [Example 8] noted as 25

Lab book: Transactivating (TA)(MMTV-Promoter) Efficacy of Cc1noc(=O)c2ccc(NC(=O)C(O)(CC3(c4cc(F)ccc4O)CCC3)C(F)(F)F)cc12 (single isomer, unassigned) [Example 29] noted as 59

====

Listed here are compounds together with their documented pEC50.
target: GR (MMTV promoter) (Homo sapiens, UniProt P04150); assay: reporter gene test in HeLa cells, transactivation, MMTV promoter-luciferase; settings: read-out: Transactivating (TA)(MMTV-Promoter) EC50; HeLa cells, luciferase
Sequence (P04150 whole entry): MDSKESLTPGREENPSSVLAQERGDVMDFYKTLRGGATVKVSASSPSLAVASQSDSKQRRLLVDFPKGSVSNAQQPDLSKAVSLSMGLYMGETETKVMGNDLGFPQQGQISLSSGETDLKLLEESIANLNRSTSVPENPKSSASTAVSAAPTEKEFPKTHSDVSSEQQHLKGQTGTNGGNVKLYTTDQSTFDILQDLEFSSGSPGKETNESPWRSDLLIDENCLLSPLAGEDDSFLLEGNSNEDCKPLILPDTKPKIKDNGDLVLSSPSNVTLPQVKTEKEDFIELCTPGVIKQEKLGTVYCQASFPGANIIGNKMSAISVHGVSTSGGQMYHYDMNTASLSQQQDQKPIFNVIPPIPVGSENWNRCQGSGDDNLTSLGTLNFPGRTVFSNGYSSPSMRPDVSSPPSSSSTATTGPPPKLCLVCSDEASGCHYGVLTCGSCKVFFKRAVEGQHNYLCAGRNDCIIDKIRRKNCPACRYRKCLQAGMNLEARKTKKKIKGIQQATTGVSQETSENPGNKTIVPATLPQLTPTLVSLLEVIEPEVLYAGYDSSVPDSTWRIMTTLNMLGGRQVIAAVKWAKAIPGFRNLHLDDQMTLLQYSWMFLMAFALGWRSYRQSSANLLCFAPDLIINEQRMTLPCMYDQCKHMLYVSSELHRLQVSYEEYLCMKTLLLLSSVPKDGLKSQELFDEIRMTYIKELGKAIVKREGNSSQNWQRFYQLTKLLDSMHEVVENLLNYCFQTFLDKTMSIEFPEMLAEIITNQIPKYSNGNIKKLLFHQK
# pEC50 = -log10(concentration in molar units)

* CCc1noc(=O)c2ccc(NC(=O)C(O)(CC3(c4cccc5c4OCC5)CCC3)C(F)(F)F)cc12 (single isomer, unassigned) [Example 17] | 7.40

Lab note: next compound to report on.
Reading of pEC50 for Cc1noc(=O)c2ccc(NC(=O)C(O)(CC(C)(C)c3cccc4ccoc34)C(F)(F)F)cc12 (single isomer, unassigned) [Example 23] with GR (MMTV promoter) (Homo sapiens, UniProt P04150): 8.00

Value source: patent US7112584B2
